- Tested On: Sodium- and chloride-dependent GABA transporter 2 (Homo sapiens)
- Assay Method Text: Inhibition of human GAT2 expressed in Flp-In CHO cells assessed as reduction in [3H]GABA uptake at 100 uM incubated for 3 mins by liquid scintillation counting method relative to control
- Format: cell-based
Below is a list of entries, each paired with its recorded inhibition value.

Consider the worked cases shown below.
Compound: C[C@@H](C(=O)O)[C@@H]1CSC(N)=N1 (relative stereo)
inhibition: > 30%
//
Compound: CC(C(=O)O)C1CSC(N)=N1 (stereo in doubt; l-10b)
inhibition: > 30%
//
Compound: C[C@@H](C(=O)O)[C@H]1CSC(N)=N1 (relative stereo)
inhibition: > 30%
//
Compound: O=C(O)C[C@H]1CCNC1
inhibition: > 30%
//
Compound: C[C@@H]1SC(N)=N[C@@H]1CC(=O)O (relative stereo)
inhibition: > 30%

Exercise: Fill in inhibition for record NC1=NC(CC(=O)O)CS1 (stereo unspecified)
Key: > 30%

Exercise: Fill in inhibition for record CC(C(=O)O)C1CSC(N)=N1 (stereo in doubt; l-10a)
Key: > 30%

* * *

Below is a list of entries, each paired with its recorded EC50 value.
- Tested On: Gamma-aminobutyric acid receptor subunit alpha-5/beta-2/gamma-2 (Homo sapiens, UniProt P18507+P31644+P47870)
- Sequence (P47870 whole entry): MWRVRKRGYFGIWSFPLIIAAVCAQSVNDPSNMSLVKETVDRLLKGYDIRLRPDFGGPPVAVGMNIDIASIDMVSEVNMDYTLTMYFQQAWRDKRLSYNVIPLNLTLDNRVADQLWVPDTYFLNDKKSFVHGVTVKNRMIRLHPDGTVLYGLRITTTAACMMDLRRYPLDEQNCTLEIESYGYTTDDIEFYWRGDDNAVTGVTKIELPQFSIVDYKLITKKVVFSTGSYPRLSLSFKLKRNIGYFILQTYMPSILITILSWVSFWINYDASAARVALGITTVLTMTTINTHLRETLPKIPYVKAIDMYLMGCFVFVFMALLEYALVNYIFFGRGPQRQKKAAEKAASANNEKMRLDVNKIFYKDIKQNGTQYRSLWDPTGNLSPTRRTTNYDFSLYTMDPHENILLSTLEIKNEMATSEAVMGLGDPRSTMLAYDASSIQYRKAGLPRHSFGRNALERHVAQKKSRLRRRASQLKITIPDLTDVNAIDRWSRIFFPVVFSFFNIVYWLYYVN
- Sequence (P18507 whole entry): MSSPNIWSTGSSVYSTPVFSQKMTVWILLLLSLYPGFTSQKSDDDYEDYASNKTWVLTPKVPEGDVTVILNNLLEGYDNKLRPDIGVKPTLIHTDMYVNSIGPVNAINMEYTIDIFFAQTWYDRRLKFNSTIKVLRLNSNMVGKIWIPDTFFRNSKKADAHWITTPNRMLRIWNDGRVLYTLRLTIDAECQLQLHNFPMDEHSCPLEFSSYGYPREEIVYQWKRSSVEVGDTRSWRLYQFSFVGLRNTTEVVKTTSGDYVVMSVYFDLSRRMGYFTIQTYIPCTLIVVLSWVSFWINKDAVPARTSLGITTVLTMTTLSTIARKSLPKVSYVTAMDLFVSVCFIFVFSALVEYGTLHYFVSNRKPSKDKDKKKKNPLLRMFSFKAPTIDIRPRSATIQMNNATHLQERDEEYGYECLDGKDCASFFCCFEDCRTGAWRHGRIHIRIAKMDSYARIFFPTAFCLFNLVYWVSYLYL
- Sequence (P31644 whole entry): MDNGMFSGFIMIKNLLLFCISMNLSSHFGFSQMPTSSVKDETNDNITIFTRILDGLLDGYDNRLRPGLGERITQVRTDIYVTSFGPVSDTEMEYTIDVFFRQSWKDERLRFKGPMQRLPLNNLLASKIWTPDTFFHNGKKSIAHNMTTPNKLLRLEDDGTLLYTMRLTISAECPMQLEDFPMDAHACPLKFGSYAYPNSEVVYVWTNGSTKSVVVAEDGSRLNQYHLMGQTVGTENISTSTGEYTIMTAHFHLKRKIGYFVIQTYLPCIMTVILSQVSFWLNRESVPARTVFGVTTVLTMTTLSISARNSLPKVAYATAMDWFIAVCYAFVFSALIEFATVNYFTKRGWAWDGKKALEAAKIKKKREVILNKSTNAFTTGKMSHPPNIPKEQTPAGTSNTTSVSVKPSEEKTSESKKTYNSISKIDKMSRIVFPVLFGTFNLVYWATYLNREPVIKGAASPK
- Assay Method Text: Agonist activity at recombinant human GABA-A alpha5beta2gamma2S receptor transiently expressed in human tsA201 cells incubated for 30 mins and measured up to 90 secs by FMP dye based FLIPR membrane potential blue assay
Reply numerically in µM, unit not repeated.

Consider the worked cases shown below.
Compound: C[C@@H](C(=O)O)[C@@H]1CSC(N)=N1 (relative stereo)
Readout Units: µM
Recorded Value: 3

Compound: NC1=N[C@H](CC(=O)O)CS1
Readout Units: µM
Recorded Value: 0.12

Compound: C[C@H]1SC(N)=N[C@@H]1CC(=O)O (relative stereo)
Readout Units: µM
Recorded Value: 17

Compound: NC1=NC(CC(=O)O)CS1 (stereo not given)
Readout Units: µM
Recorded Value: 0.22

Compound: O=C(O)CC1CNC=N1 (stereo not given)
Readout Units: µM
Recorded Value: 0.79

Compound: Nc1nc(CC(=O)O)cs1
Readout Units: µM
Recorded Value: 24

Compound: NC1=N[C@@H](CC(=O)O)CS1
Readout Units: µM
Recorded Value: 0.56

Compound: NC1=NC(CC(=O)O)CN1 (stereo not given)
Readout Units: µM
Recorded Value: 1.6

Compound: C[C@@H](C(=O)O)[C@H]1CSC(N)=N1 (relative stereo)
Readout Units: µM
Recorded Value: 2.6

Next compound, please.
Exercise: Fill in EC50 for record CC1(CC(=O)O)CSC(N)=N1 (stereo not given)
Key: 4.5

* * *

- Tested On: Gamma-aminobutyric acid receptor subunit rho-1 (Homo sapiens)
- Sequence (P24046 whole entry): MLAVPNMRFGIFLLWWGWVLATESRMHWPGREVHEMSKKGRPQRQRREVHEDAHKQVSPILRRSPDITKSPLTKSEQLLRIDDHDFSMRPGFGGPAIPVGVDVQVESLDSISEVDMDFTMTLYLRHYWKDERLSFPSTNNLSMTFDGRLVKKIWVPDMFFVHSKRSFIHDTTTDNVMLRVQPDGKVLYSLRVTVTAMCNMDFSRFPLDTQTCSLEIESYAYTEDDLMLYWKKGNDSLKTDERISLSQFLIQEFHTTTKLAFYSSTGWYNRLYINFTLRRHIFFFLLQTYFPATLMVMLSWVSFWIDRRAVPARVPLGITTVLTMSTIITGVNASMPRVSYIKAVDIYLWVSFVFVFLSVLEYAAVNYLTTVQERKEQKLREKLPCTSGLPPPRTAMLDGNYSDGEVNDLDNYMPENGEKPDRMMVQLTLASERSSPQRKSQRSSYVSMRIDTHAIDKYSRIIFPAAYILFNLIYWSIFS
- Assay Method Text: Agonist activity at recombinant human GABA-A rho-1 receptor transiently expressed in human tsA201 cells assessed as GABA-induced maximum response incubated for 30 mins and measured up to 90 secs by FMP dye based FLIPR membrane potential blue assay relative to GABA
- Assay type: cell-based
Active and inactive are the calls of the source. The rule behind the calls is not given here.
Property Name: Rmax

Compound: CC(C(=O)O)C1CSC(N)=N1 (stereo in doubt; l-10a)
Tested On: Gamma-aminobutyric acid receptor subunit rho-1 (Homo sapiens)
Rmax: 63%
//
Compound: NC1=N[C@@H](CC(=O)O)CS1
Tested On: Gamma-aminobutyric acid receptor subunit rho-1 (Homo sapiens)
Rmax: 34%
//
Compound: C[C@H]1SC(N)=N[C@@H]1CC(=O)O (relative stereo)
Tested On: Gamma-aminobutyric acid receptor subunit rho-1 (Homo sapiens)
Rmax: inactive
//
Compound: NC1=NC(CC(=O)O)CS1 (stereo not drawn)
Tested On: Gamma-aminobutyric acid receptor subunit rho-1 (Homo sapiens)
Rmax: 43%
//
Compound: NC1=N[C@H](CC(=O)O)CS1
Tested On: Gamma-aminobutyric acid receptor subunit rho-1 (Homo sapiens)
Rmax: 75%
//
Compound: O=C(O)Cc1c[nH]cn1 [IMIDAZOLE ACETIC ACID]
Tested On: Gamma-aminobutyric acid receptor subunit rho-1 (Homo sapiens)
Rmax: 46%

Exercise: Fill in Rmax for record NC1=NC(CC(=O)O)CN1 (stereo not drawn)
Key: 64%

Exercise: Fill in Rmax for record O=C(O)CC1CNC=N1 (stereo not drawn)
Key: 45%

Exercise: Fill in Rmax for record CC(C(=O)O)C1CSC(N)=N1 (stereo in doubt; l-10b)
Key: 31%

Exercise: Fill in Rmax for record O=C(O)C[C@H]1CCNC1
Key: 101%

Exercise: Fill in Rmax for record C[C@@H](C(=O)O)[C@@H]1CSC(N)=N1 (relative stereo)
Key: 35%

Exercise: Fill in Rmax for record O=C(O)C[C@@H]1CCNC1
Key: inactive

Exercise: Fill in Rmax for record Nc1nc(CC(=O)O)cs1
Key: inactive
